Source: patent US20160346402A1

Consider the following binders; for each one, report its log10 of koff.
Target: T1, TPP-2305, hTNFRSF12 amino acids a28-80 (recombinant human TWEAKR protein) (human, UniProt Q9NP84 28-80)
T1 construct: Soluble monomeric antigen, injected as analyte over the captured antibodies; Bought protein
Assay: SPR (Biacore T100), antibody captured, TWEAKR TPP-2305 as analyte, 1:1 model
Please keep in mind that the values are log10 of koff expressed in s⁻¹.

Exercise: Tell me measured log10 of koff for P3G5(TPP-2195) (antibody, mouse IgG2a, kappa, V domains shown, Comparative antibody, murine IgG2a; variable domains from WO2009/140177 with added constant regions) VH: QVQLQQSGPEVVRPGVSVKISCKGSGYTFTDYGIHWVKQSHAKSLEWIGVISTYNGYTNYNQKFKGKATMTVDKSSSTAYMELARLTSEDSAIYYCARAYYGNLYYAMDYWGQGTSVTVSS VL: DIVLTQSPASLAVSLGQRATISCRANKSVSTSSYSYMHWYQQKPGQPPKLLIKYASNLESGVPARFSGSGSGTDFILNIHPVEEEDAATYYCQHSRELPFTFGSGTKLEIKR please.
Solution: -2.91

Exercise: Tell me measured log10 of koff for TPP-2149 (antibody, human IgG1, kappa, V domains shown, human IgG1) VH: EVQLLESGGGLVQPGGSLRLSCAASGFTFSPYPMIWVRQAPGKGLEWVSYISPSGGKTHYADSVKGRFTISRDNSKNTLYLQMNSLRAEDTAVYYCARGGDTYFDYFDYWGQGTLVTVSS VL: DIQMTQSPATLSASVGDRVTITCRASQSISGYLNWYQQKPGKAPKLLIYQASSLQSGVPSRFSGSGSGTDFTLTISSLQPEDFATYYCQQSYTSPFITFGPGTKVEIKR please.
Solution: -1.00

Exercise: Tell me measured log10 of koff for TPP-2148 (antibody, human IgG1, kappa, V domains shown, human IgG1) VH: EVQLLESGGGLVQPGGSLRLSCAASGFTFSPYPMMWVRQAPGKGLEWVSYISPSGGKTHYADSVKGRFTISRDNSKNTLYLQMNSLRAEDTAVYYCARGGDTYFDYFDYWGQGTLVTVSS VL: DIQMTQSPATLSASVGDRVTITCRASQSISSYLNWYQQKPGKAPKLLIYQASSLQSGVPSRFSGSGSGTDFTLTISSLQPEDFATYYCQQSYTSPFITFGPGTKVEIKR please.
Solution: -0.89

Exercise: Tell me measured log10 of koff for 18.3.3(TPP-2193) (antibody, mouse IgG2a, kappa, V domains shown, Comparative antibody, murine IgG2a; variable domains from WO2009/020933 with added constant regions) VH: EVKLGESGGGLVQPGGSMKLSCVASGFPFTKYWMNWVRQSPEKGLEWVAEIRLKSDNYATHYAESAKGRFTISRDDSRSSVYLQMNNLRAEDTAIYYCSPTYADTMDYWGQGTSVTVSS VL: DIVLTQSPASLAVSLGQRATISCKASQSVSTSTYSYMQWYQQRPGQSPKLLIKYASKLDSGVPARFSGSGSGTDFTLNIHPVEEEDTATYYCQHSWELPYTFGGGTRLEIKR please.
Solution: -1.55

Exercise: Tell me measured log10 of koff for TPP-2093 (antibody, human IgG1, kappa, V domains shown, human IgG1) VH: EVQLLESGGGLVQPGGSLRLSCAASGFTFSPYPMMWVRQAPGKGLEWVSYISPSGGSTHYADSVKGRFTISRDNSKNTLYLQMNSLRAEDTAVYYCARGGDTYFDYFDYWGQGTLVTVSS VL: DIQMTQSPSSLSASVGDRVTITCRASQSISSYLNWYQQKPGKAPKLLIYQASSLQSGVPSRFSGSGSGTDFTLTISSLQPEDFATYYCQQSYTSPFITFGQGTKVEIKR please.
Solution: -1.05
